Biological target: T1, human OPGbp [143-317] (human, UniProt O14788 143-317)
T1 construct: also called OPGL
T1 sequence (looked up): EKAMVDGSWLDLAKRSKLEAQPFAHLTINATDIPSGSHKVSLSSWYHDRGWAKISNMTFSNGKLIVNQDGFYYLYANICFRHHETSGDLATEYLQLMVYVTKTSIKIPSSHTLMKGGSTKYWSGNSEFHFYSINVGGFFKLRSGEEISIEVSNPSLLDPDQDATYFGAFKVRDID
Test: SPR (BIAcore), immobilized OPGbp [143-317]
measured.quantity: kon
Just the number plus its unit, please.

binder="“AT” antibody variant N98S (heavy chain CDR3) (antibody, name in Kabat numbering, V domains shown, not shown: human IgG1 CH1, hinge, CH2 and CH3) VH: QVQLVQSGAEVRKPGASVKVSCKASGYDFSNYAIHWVRQAPGQRLEWMGWINAGNGNTKFSQKFQGRITVTRDTAASTAYMELRSLRSEDTAVYYCARDSSSMVRGIIIAYYFDYWGQGTLVTVSS VL: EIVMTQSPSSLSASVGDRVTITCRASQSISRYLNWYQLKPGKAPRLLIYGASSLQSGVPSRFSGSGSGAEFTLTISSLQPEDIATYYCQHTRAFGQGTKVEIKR" measured_quantity=kon recorded_value="2.67e+06 M⁻¹ s⁻¹"
binder="“AT” antibody variant N98G (heavy chain CDR3) (antibody, name in Kabat numbering, V domains shown, not shown: human IgG1 CH1, hinge, CH2 and CH3) VH: QVQLVQSGAEVRKPGASVKVSCKASGYDFSNYAIHWVRQAPGQRLEWMGWINAGNGNTKFSQKFQGRITVTRDTAASTAYMELRSLRSEDTAVYYCARDSSGMVRGIIIAYYFDYWGQGTLVTVSS VL: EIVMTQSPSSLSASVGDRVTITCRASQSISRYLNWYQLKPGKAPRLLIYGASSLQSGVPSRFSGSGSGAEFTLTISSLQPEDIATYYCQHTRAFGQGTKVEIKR" measured_quantity=kon recorded_value="230000 M⁻¹ s⁻¹"

Proceed to the following item.
Input: Give the measured kon for “AT” antibody variant N98L (heavy chain CDR3) (antibody, name in Kabat numbering, V domains shown, not shown: human IgG1 CH1, hinge, CH2 and CH3) VH: QVQLVQSGAEVRKPGASVKVSCKASGYDFSNYAIHWVRQAPGQRLEWMGWINAGNGNTKFSQKFQGRITVTRDTAASTAYMELRSLRSEDTAVYYCARDSSLMVRGIIIAYYFDYWGQGTLVTVSS VL: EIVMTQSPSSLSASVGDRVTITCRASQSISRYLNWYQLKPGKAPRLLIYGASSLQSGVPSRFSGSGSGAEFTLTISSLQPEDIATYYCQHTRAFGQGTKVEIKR
Output: 1.48e+06 M⁻¹ s⁻¹

These measurements were taken from patent US20140147444A1.
